studyTarget: Human pyruvate kinase R (PKR) (Homo sapiens)
Construct: Human pyruvate kinase R (PKR), residues 14-574; 6x-His (N, cleaved yes); 8x-Arg (N, cleaved yes); SUMO (N, cleaved yes); host or cells: E. coli
measurementNotes: Biochemical assay for activation of pyruvate kinase R (Kinase-Glo luminescence measurement of ATP generation)
experimentalConditions: maximal activation level relative to the activation level achieved by the literature compound AG-348 @ 10 μM
Give measured Emax for each item. Keep answers brief.
Dear colleague, please return just the value in %, with no unit written.

Ask | Give Emax for the following compound: `CN(Cc1ncnn1-c1ccc(Cl)c(F)c1)C(=O)N(C)Cc1ncnn1-c1ccc(Cl)c(F)c1`
Reply | 29

Ask | Give Emax for the following compound: `Cc1nc(CNC(=O)NCc2ncnn2Cc2ccccc2)n(-c2ccc(Cl)c(F)c2)n1`
Reply | 85

Ask | Give Emax for the following compound: `Cc1nc(CNC(=O)NCc2ncnn2CC2(O)CCCCC2)n(-c2ccc(Cl)c(F)c2)n1`
Reply | 72

Ask | Give Emax for the following compound: `CCN(Cc1ncnn1-c1ccc(OC)nc1)C(=O)NCc1ncnn1-c1ccc(Cl)c(F)c1`
Reply | 42

Ask | Give Emax for the following compound: `Cc1nc(CNC(=O)N(C)Cc2nc(C)nn2-c2ccc(Cl)c(F)c2)n(-c2ccc(Cl)c(F)c2)n1`
Reply | 88

Ask | Give Emax for the following compound: `Cc1nc(CNC(=O)NCc2ncnn2-c2ccn3ccnc3c2)n(-c2ccc(Cl)c(F)c2)n1`
Reply | 59

Ask | Give Emax for the following compound: `O=C(NCc1ncnn1-c1ccc(Cl)c(F)c1)NCc1ncnn1-c1cnc2cc(F)ccc2c1`
Reply | 76

Ask | Give Emax for the following compound: `Cc1ccc(-n2ncnc2CNC(=O)NCc2ncnn2-c2ccc(C)nc2)cn1`
Reply | 36

* * *

studyTarget: Human pyruvate kinase R (PKR) (Homo sapiens, UniProt P30613)
Construct: Human pyruvate kinase R (PKR), residues 14-574; 6x-His (N, cleaved yes); 8x-Arg (N, cleaved yes); SUMO (N, cleaved yes); host or cells: E. coli
Sequence (P30613 14-574): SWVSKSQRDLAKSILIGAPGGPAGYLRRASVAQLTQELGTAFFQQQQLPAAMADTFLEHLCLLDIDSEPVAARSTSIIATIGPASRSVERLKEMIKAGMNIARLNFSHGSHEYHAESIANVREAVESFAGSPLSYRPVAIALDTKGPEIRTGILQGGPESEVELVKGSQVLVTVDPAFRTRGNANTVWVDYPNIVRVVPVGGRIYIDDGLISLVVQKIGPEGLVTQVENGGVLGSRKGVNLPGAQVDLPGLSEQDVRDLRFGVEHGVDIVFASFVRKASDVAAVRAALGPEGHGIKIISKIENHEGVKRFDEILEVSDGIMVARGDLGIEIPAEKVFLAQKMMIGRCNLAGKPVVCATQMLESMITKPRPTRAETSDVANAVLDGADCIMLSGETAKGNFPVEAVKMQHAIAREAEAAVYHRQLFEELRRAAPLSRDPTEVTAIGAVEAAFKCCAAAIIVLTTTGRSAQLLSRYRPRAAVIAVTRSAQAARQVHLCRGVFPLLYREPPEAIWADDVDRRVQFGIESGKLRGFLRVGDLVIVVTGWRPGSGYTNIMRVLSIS
measurementNotes: Biochemical assay for activation of pyruvate kinase R (Kinase-Glo luminescence measurement of ATP generation)
experimentalConditions: PKR biochemical assay; 0.1 nM PKR, 0.3 mM ADP, 2 mM FBP, 0.1 mM PEP
Give measured AC50 for each item. Keep answers brief.

Ask | Give AC50 for the following compound: `O=C(NCc1nnnn1-c1ccc(Cl)c(Cl)c1)NCc1nnnn1-c1ccc(Cl)c(Cl)c1`
Reply | 180 nM

Ask | Give AC50 for the following compound: `CCN(Cc1ncnn1-c1ccc(Cl)c(F)c1)C(=O)NCc1nnnn1-c1ccc(Cl)c(F)c1`
Reply | 130 nM

Ask | Give AC50 for the following compound: `Cc1nc(CNC(=O)NCc2nn(C)c(=O)n2-c2ccc(Cl)c(F)c2)n(-c2ccc(Cl)c(F)c2)n1`
Reply | 40 nM

Ask | Give AC50 for the following compound: `Cc1nc(CNC(=O)NCc2ncnn2-c2ccc3ncc(F)cc3c2)n(-c2ccc(Cl)c(F)c2)n1`
Reply | 38 nM

Ask | Give AC50 for the following compound: `Cc1nc(CNC(=O)NCC2=NC3(CC3)C(=O)N2Cc2ccc(F)cc2)n(-c2ccc(Cl)c(F)c2)n1`
Reply | 71 nM

Ask | Give AC50 for the following compound: `CN(Cc1ncnn1-c1ccc(Cl)c(F)c1)C(=O)NCc1ncnn1-c1ccc(Cl)c(F)c1`
Reply | 5.4 nM

Ask | Give AC50 for the following compound: `COc1ccc(-n2ncnc2CNC(=O)NCc2nc(C)nn2-c2ccc(Cl)c(F)c2)cn1`
Reply | 140 nM

Ask | Give AC50 for the following compound: `CC(C)c1nc(CNC(=O)NCc2ncnn2-c2ccc3cccnc3c2)n(-c2ccc(Cl)c(F)c2)n1`
Reply | 540 nM

Ask | Give AC50 for the following compound: `O=C(NCc1ncnn1-c1ccc(Cl)c(F)c1)NCc1ncnn1-c1ccc(Cl)c(F)c1`
Reply | 13 nM

Ask | Give AC50 for the following compound: `CCN(Cc1ncnn1-c1ccc(OC)nc1)C(=O)NCc1nc(C)nn1-c1ccc(Cl)c(F)c1`
Reply | 270 nM

Ask | Give AC50 for the following compound: `Cc1nc(CNC(=O)NCc2ncnn2-c2cnc3c(F)cccc3c2)n(-c2ccc(Cl)c(F)c2)n1`
Reply | 47 nM

Ask | Give AC50 for the following compound: `Cc1nc(CNC(=O)NCC2=NC3(CC3)C(=O)N2c2ccc3cccnc3c2)n(-c2ccc(Cl)c(F)c2)n1`
Reply | 140 nM

Ask | Give AC50 for the following compound: `O=C(NCc1ncnn1-c1ccc2cccnc2c1)NCc1ncnn1-c1ccc2cccnc2c1`
Reply | 280 nM

Ask | Give AC50 for the following compound: `CCc1nc(CNC(=O)NCc2ncnn2-c2ccc3cccnc3c2)n(-c2ccc(Cl)c(F)c2)n1`
Reply | 110 nM

Ask | Give AC50 for the following compound: `Cc1nc(CNC(=O)NCc2ncnn2CC2CCCCC2)n(-c2ccc(Cl)c(F)c2)n1`
Reply | 55 nM

Ask | Give AC50 for the following compound: `Cc1nc(CNC(=O)NCc2nc(C)nn2-c2ccc3cccnc3c2)n(-c2ccc3cccnc3c2)n1`
Reply | 520 nM

* * *

Give measured Emax for each item. Keep answers brief.
studyTarget: Human pyruvate kinase R (PKR) (Homo sapiens, UniProt P30613)
Construct: Human pyruvate kinase R (PKR), residues 14-574; 6x-His (N, cleaved yes); 8x-Arg (N, cleaved yes); SUMO (N, cleaved yes); host or cells: E. coli
measurementNotes: Biochemical assay for activation of pyruvate kinase R (Kinase-Glo luminescence measurement of ATP generation)
experimentalConditions: maximal activation level relative to the activation level achieved by the literature compound AG-348 @ 10 μM
Dear colleague, please return just the value in %, with no unit written.

Ask | Give Emax for the following compound: `Cc1nc(CNC(=O)NCC2=NC3(CC3)C(=O)N2c2ccc3cccnc3c2)n(-c2ccc(Cl)c(F)c2)n1`
Reply | 105

Ask | Give Emax for the following compound: `O=C(NCc1ncnn1-c1ccc2cccnc2c1)NCc1nnnn1-c1ccc(Cl)c(F)c1`
Reply | 106

Ask | Give Emax for the following compound: `Cc1nc(CNC(=O)NCc2ncnn2-c2ccc3cnccc3c2)n(-c2ccc(Cl)c(F)c2)n1`
Reply | 85

Ask | Give Emax for the following compound: `CN(Cc1ncnn1-c1ccc(Cl)c(F)c1)C(=O)NCc1ncnn1-c1ccc(Cl)c(F)c1`
Reply | 33

* * *

studyTarget: Human pyruvate kinase R (PKR) (Homo sapiens, UniProt P30613)
Construct: Human pyruvate kinase R (PKR), residues 14-574; 6x-His (N, cleaved yes); 8x-Arg (N, cleaved yes); SUMO (N, cleaved yes); host or cells: E. coli
measurementNotes: Biochemical assay for activation of pyruvate kinase R (Kinase-Glo luminescence measurement of ATP generation)
experimentalConditions: maximal activation level relative to the activation level achieved by the literature compound AG-348 @ 10 μM
recordedEndpoint: Emax (%)
Dear colleague, please return just the value in %, with no unit written.

Ask | Give Emax for the following molecule: Cc1cncc(-n2ncnc2CNC(=O)NCc2nc(C)nn2-c2ccc(Cl)c(F)c2)c1 [Compound 137]
Reply | 99

Ask | Give Emax for the following molecule: Cc1nc(CNC(=O)NCC2=NC3(CCC3)C(=O)N2c2ccc3cccnc3c2)n(-c2ccc(Cl)c(F)c2)n1 [Compound 112]
Reply | 126

Ask | Give Emax for the following molecule: O=C(NCc1ncnn1-c1ccc2ncccc2c1)NCc1ncnn1-c1ccc2ncccc2c1 [Compound 71]
Reply | 48

Ask | Give Emax for the following molecule: O=C(NCc1ncnn1-c1ccc2cccnc2c1)NCc1nc(C2CC2)nn1-c1ccc(Cl)c(F)c1 [Compound 83]
Reply | 83

* * *

Give measured Emax for each item. Keep answers brief.
studyTarget: Human pyruvate kinase R (PKR) (Homo sapiens)
Construct: Human pyruvate kinase R (PKR), residues 14-574; 6x-His (N, cleaved yes); 8x-Arg (N, cleaved yes); SUMO (N, cleaved yes); host or cells: E. coli
measurementNotes: Biochemical assay for activation of pyruvate kinase R (Kinase-Glo luminescence measurement of ATP generation)
experimentalConditions: maximal activation level relative to the activation level achieved by the literature compound AG-348 @ 10 μM

Ask | Give Emax for the following compound: `Cc1cc(-n2nnnc2CNC(=O)NCc2nnnn2-c2ccc(Cl)c(C)c2)ccc1Cl`
Reply | 86%

Ask | Give Emax for the following compound: `Cc1nc(CNC(=O)NCc2ncnn2-c2cc(F)c3cncnc3c2)n(-c2ccc(Cl)c(F)c2)n1`
Reply | 74%

Ask | Give Emax for the following compound: `Cc1nc(CNC(=O)NCc2ncnn2-c2ccc(Cl)c(F)c2)n(-c2cnc3ccccc3c2)n1`
Reply | 94%

Ask | Give Emax for the following compound: `CN(Cc1nnnn1-c1ccc(Cl)c(F)c1)C(=O)NCc1nnnn1-c1ccc(Cl)c(F)c1`
Reply | 93%

Ask | Give Emax for the following compound: `O=C(NCc1nnnn1-c1ccc(Cl)c(Cl)c1)NCc1nnnn1-c1ccc(Cl)c(Cl)c1`
Reply | 82%

Ask | Give Emax for the following compound: `O=C(NCc1ncnn1-c1ccc(Cl)c(F)c1)NCc1nnnn1-c1ccc(Cl)c(F)c1`
Reply | 76%

Ask | Give Emax for the following compound: `CN(Cc1nnnn1-c1ccc(Cl)c(F)c1)C(=O)NCc1ncnn1-c1ccc(Cl)c(F)c1`
Reply | 74%

Ask | Give Emax for the following compound: `O=C(NCc1nnnn1-c1cccc(Cl)c1)NCc1nnnn1-c1cccc(Cl)c1`
Reply | 69%

Ask | Give Emax for the following compound: `Cc1nc(CNC(=O)NCc2ncnn2-c2ccc3nccnc3c2)n(-c2ccc(Cl)c(F)c2)n1`
Reply | 73%

Ask | Give Emax for the following compound: `COc1ccc(-n2ncnc2CNC(=O)NCc2nc(C)nn2-c2ccc(Cl)c(F)c2)cn1`
Reply | 70%

Ask | Give Emax for the following compound: `Cc1ccc(-n2nnnc2CNC(=O)NCc2nnnn2C2CCCCC2)cc1C`
Reply | 68%
